- PROTOCOL_NOTES: Assessment of solubility: HT solubility in pION buffer, UV spectrophotometry
- EXPERIMENTAL_SETUP: pION system solution buffer, pH 4.5, pH 4.5, aqueous buffer, kinetic from dmso stock, Solubility (pH 4.5), pH 4.5 buffer, 16-19 h incubation, 1.0% DMSO
OBSERVED_PROPERTY: solubility (µg/mL)
Write the number in µg/mL without appending the unit.

Example results:
Cc1ccc(OCc2ccc(CN3CCS(=O)(=O)CC3)cc2C)c(-c2csc(N3CCC4(C(=O)O)CC4C3)n2)c1 (centres unmarked) | 0.95
Cc1cc(CN2CCOCC2)ccc1COc1ccc(Cl)cc1-c1csc(N2CCC(C(=O)O)C(C)C2)n1 (centres unmarked) | 11
Cc1cc(CN2CCS(=O)(=O)CC2)ccc1COc1ccc(F)cc1-c1csc(N2CC3C(C2)C3C(=O)O)n1 (centres unmarked) | 0.35
Cc1ccc(OCc2ccc(CN3CCOC(C)C3)cc2C#N)c(-c2csc(N3C[C@H]4CC[C@@H](C3)[C@H]4C(=O)O)n2)c1 (some centres unmarked) | 4.9

// moving on: another record for solubility
Query string: # solubility lookup, item Cc1ccc(OCc2ccc(CN3CCN(C(=O)C4CCOC4)CC3)cc2C)c(-c2csc(N3CCC(C(=O)O)CC3)n2)c1 (centres unmarked)
Result string: 51
